Reported growth inhibition values are given for each entry in this list.
Protocol Summary: NCI Yeast Anticancer Drug Screen. Data for the mec2-1 strain (AID 157)
Study Conditions: S. cerevisiae mec2-1 strain, at 50.0 µM, stronger effect = higher value
The panel holds about 79,000 compounds, 15% with a hit somewhere; the sample as a whole holds those more often.
Report as a plain number; the unit % is understood.

Here is how some molecules turned out for growth inhibition.
[[record]]
molecule = "CNC(=S)N(C)C(=S)Nn1c(=O)c(C)nn(C)c1=S"
metric = "growth inhibition"
reading = 79.7

[[record]]
molecule = "CCOC(=O)c1ccc(-n2c(C)nc3ccc(Br)cc3c2=O)cc1"
metric = "growth inhibition"
reading = 61.6

[[record]]
molecule = "O=C(SC(O)c1ccc(Cl)cc1)c1ccccc1 (configuration not stated)"
metric = "growth inhibition"
reading = 74.5

[[record]]
molecule = "CC(=O)OCC1OC(OC2C=C(O[Si](C)(C)C)C[C@H]3C(=O)C=CC(=O)[C@@H]23)C(OC(C)=O)C(OC(C)=O)C1OC(C)=O (some centres not stated)"
metric = "growth inhibition"
reading = 59.2

[[record]]
molecule = "OCCCC(Sc1ccccc1)c1ccccc1 (configuration not stated)"
metric = "growth inhibition"
reading = 78.5

[[record]]
molecule = "CC(=O)Nc1ccc(Nc2ccc(C(=C3C=CC(=[N+](C)CCC#N)C=C3)c3ccc(N(C)CCC#N)cc3)cc2)cc1"
metric = "growth inhibition"
reading = 47.7


Shift focus to the following entry.
For the molecule shown here, "ClC1=C(Cl)C(Cl)(Cl)C(Cl)(Cl)C1(Cl)Cl" , give the reported growth inhibition.
99.5

Reference for the values: PubChem BioAssay (NCI)
